- Test system: Plasmodium berghei
- test.details: Screen against P. berghei liver stage (PbLuc), transformed with Luciferase, at 2uM
- Assay type: functional, HepG2
- study.conditions: tested at 2 uM
About 2,700 (4%) of roughly 68,000 compounds showed an effect of 50% or more. The sample as a whole holds a higher share of strong results than the screen did.
// boundary case: INHIBITION equal to 20% maps to 0; strictly smaller maps to 1

[
  {
    "compound": "CNS(=O)(=O)c1ccc(CNC(=O)C2CN(C)CCO2)cc1 (configuration not stated)",
    "label": 0
  },
  {
    "compound": "CC(C)NC(=O)N1CCCC2(CCN(c3ccsc3)C2=O)C1 (configuration not stated)",
    "label": 1
  },
  {
    "compound": "CNC(=O)c1cccc(CNC(C)c2cc(C)ccc2OC(F)F)c1 (configuration not stated)",
    "label": 0
  },
  {
    "compound": "CCC1CCCCN1C(=O)c1ccnc(N(C)C)c1 (configuration not stated)",
    "label": 1
  },
  {
    "compound": "CNC(=O)c1cccc(CNC(C)c2ccc(F)cc2N(C)C)c1 (configuration not stated)",
    "label": 0
  },
  {
    "compound": "O=C(Cc1cccs1)NCC1(O)CCSCC1",
    "label": 0
  },
  {
    "compound": "COc1ccc(CNC(=O)CCn2cc(C)cn2)cc1C",
    "label": 1
  },
  {
    "compound": "CN(C)c1cc(C(=O)N2CCCCC2CNS(C)(=O)=O)ccn1 (configuration not stated)",
    "label": 0
  },
  {
    "compound": "CNS(=O)(=O)c1ccc(CNC(=O)C2CCCO2)cc1 (configuration not stated)",
    "label": 0
  },
  {
    "compound": "CCn1nccc1CN(C)C(=O)Cn1nc(C)cc1C",
    "label": 1
  },
  {
    "compound": "CNS(=O)(=O)c1ccc(CNC(=O)NCC2CCCO2)cc1 (configuration not stated)",
    "label": 0
  },
  {
    "compound": "Cc1csc(NC(=O)c2cnc(C3CCCN3)cn2)n1 (configuration not stated)",
    "label": 1
  }
]
